Cited source for all entries: patent US9133187B2

# IC50 per entry
System: PMA-stimulated P90RSK(Ser380) phosphorylation in HepG2 cells
TEST: Cellular P90RSK(Ser380) Phosphorylation Assay
Format: cell-based
TEST_PARAMETERS: Homo sapiens, 1.5 h compound incubation, PMA stimulation, pP90RSK(Ser380) normalized to GAPDH, read-out: Cell Assay IC50
Give the quantity in nM, number only.

{"COMPOUND": "O=C(NC1(c2ccc(Cl)cc2)CCNC1)N1CCc2cnc(Nc3ccc(F)cc3)nc2C1 (centres unmarked)", "IC50 / nM": 3100}

[in] So what does the record say about IC50 for O=C(N1CCc2cnc(NC3CCOCC3)nc2C1)N1CCCC1c1ccccn1 (centres unmarked) ?
[out] 9500

[in] So what does the record say about IC50 for C[C@H](Cc1ccc(Cl)cc1)NC(=O)N1CCc2cnc(N[C@@H](C)CO)nc2C1 ?
[out] 464

[in] So what does the record say about IC50 for Cn1cc(C(NC(=O)N2CCc3cnc(NC4CCOCC4)nc3C2)c2ccc(Cl)c(F)c2)cn1 (centres unmarked) ?
[out] 47.3
